target_desc: beta-catenin/TCF4 engagement (Homo sapiens)
Construct: expressed in transfected cells; host or cells: HEK293
Sequence (P35222 whole entry): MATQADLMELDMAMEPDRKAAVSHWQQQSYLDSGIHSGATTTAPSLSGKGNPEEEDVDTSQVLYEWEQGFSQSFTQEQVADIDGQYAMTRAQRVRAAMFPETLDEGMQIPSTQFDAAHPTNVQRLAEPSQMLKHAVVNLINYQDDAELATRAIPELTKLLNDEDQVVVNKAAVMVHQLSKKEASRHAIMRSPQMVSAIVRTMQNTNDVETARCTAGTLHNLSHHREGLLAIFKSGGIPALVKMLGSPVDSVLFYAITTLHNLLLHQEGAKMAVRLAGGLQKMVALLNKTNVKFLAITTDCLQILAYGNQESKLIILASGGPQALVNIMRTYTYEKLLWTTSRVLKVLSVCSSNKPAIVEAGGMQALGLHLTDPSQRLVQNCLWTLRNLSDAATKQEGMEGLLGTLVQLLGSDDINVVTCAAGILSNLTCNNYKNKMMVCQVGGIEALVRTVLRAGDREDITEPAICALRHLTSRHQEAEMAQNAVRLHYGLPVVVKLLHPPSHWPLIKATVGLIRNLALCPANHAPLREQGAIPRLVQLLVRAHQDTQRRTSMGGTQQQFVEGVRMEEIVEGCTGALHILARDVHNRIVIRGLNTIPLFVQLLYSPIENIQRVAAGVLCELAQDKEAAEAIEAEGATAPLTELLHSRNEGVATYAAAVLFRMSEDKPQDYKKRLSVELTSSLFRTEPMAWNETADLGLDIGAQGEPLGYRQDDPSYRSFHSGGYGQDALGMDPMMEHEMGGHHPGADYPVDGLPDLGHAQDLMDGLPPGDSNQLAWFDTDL
protocol_notes: Nano-BRET target engagement assay (B-cat-Halo & TCF4-Luc in HEK293 cells)
Format: cell-based
condition_details: absolute IC50; read-out: NanoBRET Abs IC50
observed_property: IC50

compound: CC(=O)N1CCC[C@]12CC=CCCCC1(CCCC=CCCCOC(=O)N3CC[C@@](C(=O)N[C@@H](Cc4ccsc4)C(=O)N[C@@H](Cc4csc5ccccc45)C(=O)N[C@@H](CCC(N)=O)C(N)=O)(C3)NC(=O)[C@H](CC(C)C)NC(=O)[C@H](Cc3ccccc3)NC(=O)[C@H](C)NC(=O)[C@H](C)NC(=O)[C@H](CC(=O)O)NC(=O)[C@H](CC(=O)O)NC1=O)NC(=O)[C@H](CCCCNC(=O)COCCOCCNC(=O)C13CC4(C)CC(C)(CC(C)(C4)C1)C3)NC(=O)[C@H](CC(=O)O)NC2=O (some centres unmarked) [I-1472]
IC50: > 20 µM

What is its IC50 for beta-catenin/TCF4 engagement (Homo sapiens)? Entry: CC(=O)N1CCC[C@]12CC=CCCCC1(CCCC=CCCCOC(=O)N3CC[C@@](C(=O)N[C@@H](Cc4ccccc4Cl)C(=O)N[C@@H](Cc4csc5ccccc45)C(=O)N[C@@H](C(N)=O)[C@H](C)O)(C3)NC(=O)[C@H](CC(N)=O)NC(=O)[C@H](Cc3ccccc3)NC(=O)[C@H](C)NC(=O)[C@H](C)NC(=O)[C@H](CC(=O)O)NC(=O)[C@H](CCC(=O)O)NC1=O)NC(=O)[C@H](CC(C)(C)C)NC(=O)[C@H](CC(=O)O)NC2=O (some centres unmarked) [I-1030]
> 20 µM

* * *

Form field: pEC50 (one value per entry).
target_desc: full-length B-Catenin (Uniprot ID P35222) (Homo sapiens, UniProt P35222)
Construct: 65 nM full-length B-Catenin (Uniprot ID P35222)
Sequence (P35222 whole entry, one chain of several): as the sequence (P35222 whole entry) above
protocol_notes: Alphascreen binding assay (beta-catenin / biotin-TCF4 10-53)
// pEC50 here means minus log10 of the molar concentration (mol/L)

compound: CC(=O)N1CCC[C@]12CC=CCCCC1(CCCC=CCCCCCC[C@@](C)(C(=O)N[C@@H](Cc3ccccc3)C(=O)N[C@@H](Cc3c[nH]c4ccccc34)C(=O)N[C@@H](CCC(N)=O)C(N)=O)NC(=O)[C@H](C(C)C)NC(=O)[C@H](Cc3ccccc3)NC(=O)[C@H](C)NC(=O)[C@H](C)NC(=O)[C@H](CCCC(=O)O)NC(=O)[C@H](CC(=O)O)NC1=O)NC(=O)[C@H](C)NC(=O)[C@H](CC(=O)O)NC2=O (some centres unmarked)
target_desc: full-length B-Catenin (Uniprot ID P35222) (Homo sapiens, UniProt P35222)
pEC50: 7.08

Report pEC50 for CC(=O)N[C@@H](Cc1ccccc1)C(=O)N[C@@H](CC(=O)O)C(=O)N[C@@H](C)C(=O)N[C@]1(C)CCCCCCC=CCOC(=O)N2CC[C@@](C(=O)N[C@@H](Cc3ccccc3)C(=O)N[C@@H](Cc3c[nH]c4ccccc34)C(=O)N[C@@H](CCC(N)=O)C(N)=O)(C2)NC(=O)[C@H](C(C)C)NC(=O)[C@H](Cc2ccccc2)NC(=O)[C@H](C)NC(=O)[C@H](C)NC(=O)[C@H](CCCC(=O)O)NC(=O)[C@H](CC(=O)O)NC1=O please.
5.19

Hello, the source for this data is patent US20240116985A1, in case you need it.
